# Condition Parameters: in acetonitrile, 308.15 K

>  <Chemical Smiles>
O=C(O)c1cc(O)c(O)c(O)c1

>  <solubility (mole fraction)>
0.0378

$$$$

----------
# Condition Parameters: in n-propanol, 308.15 K

>  <Chemical Smiles>
O=C(O)c1cc(O)c(O)c(O)c1

>  <solubility (mole fraction)>
0.0458

$$$$

----------
# Condition Parameters: in isopropanol, 298.15 K

>  <Chemical Smiles>
O=C(O)c1cc(O)c(O)c(O)c1

>  <solubility (mole fraction)>
0.0348

$$$$

----------
# Condition Parameters: in water, 308.15 K

>  <Chemical Smiles>
O=C(O)c1cc(O)c(O)c(O)c1

>  <solubility (mole fraction)>
0.00252

$$$$
